test system: TO-N3 (biotin conjugate); test: pull-down binding Z-score (relative to library population); higher = stronger binding; details: RNA library: Library-2
Known pull-down binding Z-score of a selection of sequences
Number, no unit, nothing else.

Exam item: Observed pull-down binding Z-score on TO-N3 (biotin conjugate) for CCAAGGUUGUGCUUUUAGGAAAUGUUGGCUGUCCUGCGG [hsa-mir-5739] , please.
Marked response: -0.157

Exam item: Ok, now GUUUAUUUUGUAGC [hsa-mir-4317]
Marked response: 0.221

Exam item: Ok, now GGCUGGAUCGAGUGAGCAAGCAGCAGAGGCC [IAV_invivo_M1_M2_7_Motif_14+IAV_invivo_M1_M2_7_Motif_14]
Marked response: 1.37

Exam item: Ok, now GAGUAUUAGGUUUGAAAACCCUUGCUACUC [SHAPE_invivo_SARS-CoV-2_Motif_136]
Marked response: -0.966

----------
system: G-clamp-N3 (biotin conjugate); experiment: pull-down binding Z-score (relative to library population); higher = stronger binding; details: RNA library: Library-1 (pre-miRNA loops + repeats)
ASSAY ENDPOINT: pull-down binding Z-score
Number, no unit, nothing else.

Consider the worked cases shown below.
• UUUGCCAAUAAAAGUAAUGACAAA [hsa-mir-548ah] = -1.16
• GAAGCCGCUCCCACCUGACCCUCACGGCCUC [hsa-mir-3605] = -0.691
• UAUUGUGUUGAUCAACAAUA [hsa-mir-5590] = -0.46
• AGUGGAAAAAGUUCUUUUCUUCCUCU [hsa-mir-3192] = 0.387

Exam item: I'd like to know its pull-down binding Z-score. The sequence in question is CAAUUUGAGACCAAU [hsa-mir-1285-2]
Marked response: -1.39

Exam item: Ok, now UCAGCUGUGGAAAGUAAGAAAGCUGG [hsa-mir-30c-2]
Marked response: -0.0598

Exam item: Ok, now GUGGAGGUAGGCGAGAGUAAUAUAAUUUCUCCAGGAGAACAUCUGAGAGGGGAAGUUGCUUUCCUGCCCUGGCCCUUUCAC [hsa-mir-6076]
Marked response: -0.319

Exam item: Ok, now UGUAAAAUGUAAUAACAUUUCUUAUGUUUAAAACACUUUACA [hsa-mir-4801]
Marked response: -0.257

Exam item: Ok, now UGACUCAGAUCU [hsa-mir-759]
Marked response: -1.38

Exam item: Ok, now UUUUGCUGUUACUUUUAAUGGCAAAA [hsa-mir-548az]
Marked response: -0.982

Exam item: Ok, now GACGGUGGGGGCCACGCUGACAGCCGC [hsa-mir-6804]
Marked response: 1.9

----------
test system: TO-3-N3 (biotin conjugate); assay: pull-down binding Z-score (relative to library population); higher = stronger binding; conditions: RNA library: Library-2
ASSAY ENDPOINT: pull-down binding Z-score
Number, no unit, nothing else.

* GCUAAAUUGUUACAUAAACCUAUUGUUUGGCAUGUUAACAAUGCAACUAAUAAAGCCACGUAUAAACCAAAUACCUGGUGUAUACGUUGUCUUUGGAGC | -1.1
* AAAUGAGAGUUAGCCAGGAGCUUUGCAUACUCA [hsa-mir-6801] | -0.384
* CUCUUGAUAGCAGACAU [hsa-mir-4775] | -0.326
* GGCAGAAAUGUC [hsa-mir-8053] | -0.653

Exam item: I'd like to know its pull-down binding Z-score. The sequence in question is CAAGCACACAGGGCCUGGGACUAGCAUG [hsa-mir-4728]
Marked response: 0.506

Exam item: Ok, now UGUUGGGGGGACA [hsa-mir-4262]
Marked response: 2.24

Exam item: Ok, now AGAAGACCU [hsa-mir-378g]
Marked response: 0.421

Exam item: Ok, now UAUAUACUGAUGUAAUUUUCCUUGGAUUUAUAUGCAGUACUGAG [hsa-mir-6130]
Marked response: 0.00904

Exam item: Ok, now CCCAUAUGAACAUACAAUGCUAUGGA [hsa-mir-1-2]
Marked response: -0.62

Exam item: Ok, now UAAUUAUAAAUUACCAGAUGAUUUUACAGGCUGCGUUAUAGCUUGGAAUUCUAACAAUCUUGAUUCUAAGGUUGGUGGUAAUUAUAAUUA
Marked response: -0.486

Exam item: Ok, now GCAGUCUGCUUUGUGCCAACACUGGGGUGAUGACUGC [hsa-mir-3157]
Marked response: 0.502

Exam item: Ok, now GGCAGGUGCCUCCGUGUUGCCGAACCCUCCU [hsa-mir-6761]
Marked response: 0.358

Exam item: Ok, now GCUCAAGCCACAGCAGGGUGUUUAGCGCUCUUCAGUGGCUCCAG [hsa-mir-1203]
Marked response: -0.00832

Exam item: Ok, now UUGGCGUAGUGAAAUAUAUAUUAAACACCAA [hsa-mir-16-2]
Marked response: 0.128

Exam item: Ok, now CUGUUCAGGACAAUGCCGUUGUACA [hsa-mir-199a-2]
Marked response: -0.355

Exam item: Ok, now CUGGGGAGCCGGACAGCUCCCUUCCCAG [hsa-mir-3155a]
Marked response: 0.918

Exam item: Ok, now GCAAAUUGCACAAUUUGC
Marked response: 0.165

Exam item: Ok, now GGAAUAAGUACGAUACUUACCUG [U1snRNP5ss-5]
Marked response: -0.215

Exam item: Ok, now GUAUGAGUGGUGUGGAGUCUUCAUAA [hsa-mir-9-1]
Marked response: 0.179

Exam item: Ok, now GAGUUUGGGAUUUGAAAAAACC [hsa-mir-181a-2]
Marked response: 0.253

Exam item: Ok, now UAUAGUGUGUUUGAUUUGCACUGUA [hsa-mir-4703]
Marked response: -0.156

Exam item: Ok, now CAGUAUGAAUGAAUUCAUGAUACUG [hsa-mir-3607]
Marked response: -0.768

----------
system: TO-3-N3-2 (biotin conjugate); test: pull-down binding Z-score (relative to library population); higher = stronger binding; conditions: RNA library: Library-2
ASSAY ENDPOINT: pull-down binding Z-score
Number, no unit, nothing else.

Consider the worked cases shown below.
• GGGGCCCUACUUUAAGGGCCCU [hsa-mir-8087] = 0.194
• CAGUUGUACUGUGGCUG [hsa-mir-1291] = 0.154
• AAGGGGGCCGUGGGGUGGGAGCUGGGGAA [G4_2A2_BCL2] = 9.67

Exam item: I'd like to know its pull-down binding Z-score. The sequence in question is UGGAUUUGAAAUGGUCCCACUCCUGACGAUCCU [hsa-mir-6748]
Marked response: -0.155

Exam item: Ok, now GGGCGUGGUGGACAGCGAUGCAUCCC [hsa-mir-6803]
Marked response: 0.187

Exam item: Ok, now CUUUUAUGUCUAUGCUAAUGGAGGUAAAGG [SHAPE_invivo_SARS-CoV-2_Motif_154]
Marked response: -0.487

Exam item: Ok, now GGACCAGCCCAAAGGCCAGGCCUGACCC [hsa-mir-4780]
Marked response: 0.11

Exam item: Ok, now GCAUCCUUGGAAUCUGCACUCAAGGGAUGC [hsa-mir-5089]
Marked response: -0.0765

Exam item: Ok, now AGCACUUUGUGUUUUGUGAAAGAAAGUGCU [hsa-mir-516b-2]
Marked response: -0.0767

Exam item: Ok, now GGUUUGCGCCUCAAGAAACC [hsa-mir-1255b-2]
Marked response: -0.306

Exam item: Ok, now GCUUUCUUUGGC [IAV_invivo_NS1_NEP_8_Motif_2+IAV_invivo_NS1_NEP_8_Motif_2]
Marked response: -0.505

----------
tested on: TO-3-N3 (biotin conjugate); test: pull-down binding Z-score (relative to library population); higher = stronger binding; details: RNA library: Library-2
ASSAY ENDPOINT: pull-down binding Z-score
Number, no unit, nothing else.

Consider the worked cases shown below.
* GCGCUGCCAGAAACUGGCUCAGCGC [bulge-UC] | -0.319
* GAGCCUUAAAGGAUGAGGUA [hsa-mir-4280] | 0.0602
* CUUGGCUUCAAUUUACUCCCAGG [hsa-mir-4446] | 0.257
* CACACACAAUCACCAUGUG [hsa-mir-3118-1] | -0.577
* GACGACUACUAGCGUGCCUUUGUAAGCACAAGCUGAUGAGUACGAACUUAUGUACUCAUUCGUU [SHAPE_invivo_SARS-CoV-2_Multi_65_ComplexLevel_1] | 0.114
* AGCCCUGUUGUUGUCAGAUAGUGU [hsa-mir-550a-2] | 0.198

Exam item: I'd like to know its pull-down binding Z-score. The sequence in question is AGUUGGACACUCCAUGUGGUAGAGUGUC [hsa-mir-223]
Marked response: 0.617

----------
tested on: G-clamp-N3 (biotin conjugate); assay: pull-down binding Z-score (relative to library population); higher = stronger binding; conditions: RNA library: Library-1 (pre-miRNA loops + repeats)
ASSAY ENDPOINT: pull-down binding Z-score
Number, no unit, nothing else.

Consider the worked cases shown below.
* AGCGCGGCGACCGUAACUCCU [hsa-mir-1237] | -0.629
* UGUUUAACUCCUCUCCACGUGAACA [hsa-mir-499a] | -0.0505
* GACGUGAAGGGACCACAUCCCGCUUCAUGUC [hsa-mir-4697] | -0.0598

Exam item: I'd like to know its pull-down binding Z-score. The sequence in question is AAAACUUUCAUCCAAGUCAUU [hsa-mir-378d-2]
Marked response: -0.902

Exam item: Ok, now CAGCCUUGACAACAGGCUG [hsa-mir-3130-2]
Marked response: -0.151

Exam item: Ok, now CUGUGCAGGGCCAACUGUGCACAC [hsa-mir-3681]
Marked response: 0.785
